tested on: Plasmodium falciparum; experiment: Screen against P. falciparum Asexual Blood Stage (ABS), at 5uM; type: functional, Dd2; conditions: tested at 5 uM
In all, about 65,000 compounds went through this assay and about 2,100 (3.2%) showed an effect of 50% or more. The median lay at about -52%. The full list was thinned out, with strong results kept by preference.
What INHIBITION was measured for each of the following?
Answers are plain numbers, in %.

These recorded examples may help you get a feel for the data.
{"columns": ["Compound", "Experimental target", "Value measured"],
 "data": [
  ["Cc1nccc([C@@H]2C[C@@H]3CCN(Cc4ccco4)C[C@H]3O2)n1", "Plasmodium falciparum", -17.2],
  ["CCC(C)N1CCC(Oc2ccc(C(=O)NCCN(C)C)cc2Cl)CC1 (stereo not drawn)", "Plasmodium falciparum", 79.7]
]}

Give measured INHIBITION for every item shown.
1. O=C(Nc1cccnc1)[C@H]1CN(Cc2ccco2)C[C@H]2OCC[C@@H]12
2. Cn1cc(N2C(=O)CC[C@@H]3[C@H]2CCN3Cc2ccncc2)cn1
3. Cc1ncsc1CN1C[C@@H]2CN(Cc3cccnc3)CCO[C@@H]2C1
4. N#Cc1cnc2ccccc2c1N1CCNCC1
5. CCOc1ccc(-c2cc(CCN)ccc2OC)cc1
6. COc1ncccc1CN1CC[C@H]2O[C@@H](c3nnc(C)o3)CC[C@H]21
7. COCCN1CCN(Cc2cccnc2)[C@H]2CS(=O)(=O)C[C@H]21

-115
-123
-49.8
-3.53
-58
-71.9
-9.43

====

system: Plasmodium falciparum; assay: Screen against P. falciparum Asexual Blood Stage (ABS), at 5uM; type: functional, Dd2; settings: tested at 5 uM
In all, about 65,000 compounds went through this assay and about 2,100 (3.2%) showed an effect of 50% or more. The median lay at about -52%. The sample as a whole holds a higher share of strong results than the screen did.
Please go through the items and note down their INHIBITION.
Answers are plain numbers, in %.

Below are worked cases with known answers.
{"columns": ["Molecule", "INHIBITION / %"],
 "data": [
  ["CN(Cc1cc(C2CC2)on1)C(=O)CN1CC(c2ccccc2)CC1=O (stereo unspecified)", -67.9],
  ["O=C(c1ccccc1)N1CCO[C@@H]2CNC[C@@H]21", -70.7]
]}

Each of the following entries comes with a recorded value; kindly state INHIBITION for each.
1. CC(C)CNC(=O)N1C[C@@H]2CCCN[C@@H]2C1
2. COc1ccc(C(C)NCc2cscn2)cc1Cn1cccn1 (stereo unspecified)
3. COc1ccc(CNC(C)Cn2cccn2)cc1OC (stereo unspecified)
4. CC(Cc1ccccc1Br)NC(=O)CCS(C)(=O)=O (stereo unspecified)

-5.1
71.6
-66.8
-38.5

====

system: Plasmodium falciparum; test: Screen against P. falciparum Asexual Blood Stage (ABS), at 5uM; type: functional, Dd2; conditions: tested at 5 uM
Hit rate of the full screen: of about 65,000 compounds, about 2,100 (3.2%) showed an effect of 50% or more. The median lay at about -52%. The full list was thinned out, with strong results kept by preference.
Tag: true if measured INHIBITION is not below -20%, false if it is.

Please review the following examples before continuing.
{"columns": ["Molecule", "Answer label"],
 "data": [
  ["Cc1nc(CN2CCCC(CCc3ccccc3C(F)(F)F)C2)no1 (centres undefined)", "true"],
  ["c1cnc(N2CC[C@@H]3[C@@H]2CCN3Cc2cccs2)nc1", "false"],
  ["NC1CCc2nc(-c3ccncc3)nc(Nc3cccc(F)c3)c2C1 (centres undefined)", "true"],
  ["O=C(c1ccno1)N1CC[C@@H]2CN(C3CCOCC3)CCO[C@@H]2C1", "false"],
  ["CN1CCN(c2ccc(CO)cc2F)CC1", "false"]
]}

Next, consider the following molecule.
Threshold query (INHIBITION >= -20%) on O=C(CCc1nccs1)N1CCC(C(=O)O)(c2ccccc2)CC1
false
